Listed compounds paired with reported EC50
System: pSmart BAC T7-mcv-replicon
assayMethodText: microbe, parasite or virus in culture
Assay type: cell-based, MERS
condition: Middle East respiratory syndrome-related coronavirus, HEK-293T, read-out: Antiviral activity (EC50) against T7-mcv-replicon
measuredMetric: EC50 (µM)

>>> observed("CC(C)(C)NC(=O)N[C@H](C(=O)N1C[C@H]2[C@@H]([C@H]1C(=O)NC(CC1CCC1)C(=O)C(N)=O)C2(C)C)C(C)(C)C (stereo partly drawn)")
4.67
>>> observed("N#C[C@@]1(c2ccc3c(N)ncnn23)O[C@H](CO)[C@@H](O)[C@H]1O")
5.58
>>> observed("CCC(CC)COC(=O)[C@H](C)N[P@](=O)(OC[C@H]1O[C@@](C#N)(c2ccc3c(N)ncnn23)[C@H](O)[C@@H]1O)Oc1ccccc1")
0.0815

----------
Listed molecules paired with reported EC50
Test system: T7-scv2-luc-GFP replicon (SEQ ID NO: 2)
assayMethodText: microbe, parasite or virus in culture
Type: cell-based, SARS-CoV-2
condition: Severe acute respiratory syndrome coronavirus 2, Vero
measuredMetric: EC50 (nM)

>>> observed("N#C[C@@]1(c2ccc3c(N)ncnn23)O[C@H](CO)[C@@H](O)[C@H]1O")
302
>>> observed("CCC(CC)COC(=O)[C@H](C)N[P@](=O)(OC[C@H]1O[C@@](C#N)(c2ccc3c(N)ncnn23)[C@H](O)[C@@H]1O)Oc1ccccc1")
2240
